Origin of values: patent US7977322B2

target: ΔF508-CFTR (Homo sapiens, UniProt P13569, DEL508-508); assay: Membrane potential optical (FRET/VIPR) assay, identification of correction compounds; conditions: Table 3; assay not given
Sequence (P13569 with tags, fused parts or gaps DEL508-508): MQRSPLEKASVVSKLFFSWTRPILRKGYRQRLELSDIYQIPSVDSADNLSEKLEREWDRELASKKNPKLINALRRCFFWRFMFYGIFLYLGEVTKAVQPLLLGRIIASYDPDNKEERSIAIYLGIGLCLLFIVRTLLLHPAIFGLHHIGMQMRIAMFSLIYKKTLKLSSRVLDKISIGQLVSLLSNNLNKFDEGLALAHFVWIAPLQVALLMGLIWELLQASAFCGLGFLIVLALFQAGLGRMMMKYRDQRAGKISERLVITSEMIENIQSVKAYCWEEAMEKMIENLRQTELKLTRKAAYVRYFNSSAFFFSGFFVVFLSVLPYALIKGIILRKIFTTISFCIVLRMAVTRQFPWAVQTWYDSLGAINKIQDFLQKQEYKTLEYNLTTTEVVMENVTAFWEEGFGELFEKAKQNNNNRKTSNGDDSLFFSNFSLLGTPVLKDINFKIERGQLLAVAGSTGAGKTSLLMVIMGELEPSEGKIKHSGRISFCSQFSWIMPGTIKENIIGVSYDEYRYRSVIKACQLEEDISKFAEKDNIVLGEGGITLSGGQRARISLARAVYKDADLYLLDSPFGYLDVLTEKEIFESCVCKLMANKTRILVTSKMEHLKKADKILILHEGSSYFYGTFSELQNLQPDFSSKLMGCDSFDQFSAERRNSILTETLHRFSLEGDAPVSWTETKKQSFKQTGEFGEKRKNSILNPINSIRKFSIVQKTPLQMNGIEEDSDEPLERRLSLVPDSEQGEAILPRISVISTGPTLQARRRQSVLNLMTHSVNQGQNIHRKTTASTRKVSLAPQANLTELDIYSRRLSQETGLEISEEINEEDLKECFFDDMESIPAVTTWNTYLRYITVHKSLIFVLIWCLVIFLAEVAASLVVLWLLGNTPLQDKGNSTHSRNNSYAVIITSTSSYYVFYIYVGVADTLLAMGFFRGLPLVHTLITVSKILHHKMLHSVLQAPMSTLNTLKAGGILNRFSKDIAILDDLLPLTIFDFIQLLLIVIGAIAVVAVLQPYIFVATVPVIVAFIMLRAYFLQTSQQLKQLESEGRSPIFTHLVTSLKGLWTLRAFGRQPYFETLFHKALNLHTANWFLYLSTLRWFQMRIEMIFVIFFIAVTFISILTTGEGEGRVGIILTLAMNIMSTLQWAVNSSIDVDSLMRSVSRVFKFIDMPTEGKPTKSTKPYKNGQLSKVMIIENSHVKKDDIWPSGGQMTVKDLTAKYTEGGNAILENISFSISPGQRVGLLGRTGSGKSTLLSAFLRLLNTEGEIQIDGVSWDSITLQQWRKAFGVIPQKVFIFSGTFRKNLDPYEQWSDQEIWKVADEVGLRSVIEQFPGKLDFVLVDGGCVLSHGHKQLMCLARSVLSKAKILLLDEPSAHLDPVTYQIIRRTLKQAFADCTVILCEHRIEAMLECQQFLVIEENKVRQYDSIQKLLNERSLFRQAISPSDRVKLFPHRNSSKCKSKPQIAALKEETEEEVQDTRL
pEC50: −log10 of the molar value.
measured_parameter: pEC50

CCC(c1cnc(NC(=O)C2(c3ccc4c(c3)OCO4)CC2)s1)N1CCOCC1 (stereo not shown)	4.60 to 5.00
CC(C)[C@H](CO)NC(c1cnc(NC(=O)C2(c3ccc4c(c3)OCO4)CC2)s1)c1ccccc1Cl (stereo partly shown)	> 5.00
CCCC[C@H](CO)NC(c1cnc(NC(=O)C2(c3ccc4c(c3)OCO4)CC2)s1)c1ccccc1Cl (stereo partly shown)	> 5.00
O=C(Nc1ncc(C(c2ccccc2Cl)N2CC[C@@H](O)C2)s1)C1(c2ccccc2F)CC1 (stereo partly shown)	4.60 to 5.00
CCC(CO)NC(c1cnc(NC(=O)C2(c3ccc4c(c3)OCO4)CC2)s1)c1ccccc1Cl (stereo not shown)	> 5.00
COc1ccccc1CCc1cnc(NC(=O)C2(c3ccc4c(c3)OCO4)CC2)s1	> 5.00
CCOC(=O)c1nc(NC(=O)C2(c3ccc4c(c3)OCO4)CC2)sc1Cc1ccccc1OC	> 5.00
Cn1nc(-c2ccc(Cl)c(Cl)c2)cc1NC(=O)C1(c2ccc3c(c2)OCO3)CC1	> 5.00

**Q:** // query pEC50 value for entry O=C(Nc1ncc(C(c2ccccc2F)N2CCCC2)s1)C1(c2ccc3c(c2)OCO3)CC1 (stereo not shown)
**A:** > 5.00

**Q:** // query pEC50 value for entry `COc1cccc(F)c1Cc1cnc(NC(=O)C2(c3ccc4c(c3)OCO4)CC2)s1`
**A:** > 5.00

**Q:** // query pEC50 value for entry CS(=O)(=O)c1ccc(C(c2cnc(NC(=O)C3(c4ccc5c(c4)OCO5)CC3)s2)N2CCCCC2)cc1 (stereo not shown)
**A:** > 5.00

**Q:** // query pEC50 value for entry O=C(Nc1ncc(C(OCC2CCOC2)c2ccccc2Cl)s1)C1(c2ccc3c(c2)OCO3)CC1 (stereo not shown)
**A:** > 5.00

**Q:** // query pEC50 value for entry O=C(Nc1ncc(C(Cc2ccccc2Cl)N2CCCCC2)s1)C1(c2ccc3c(c2)OCO3)CC1 (stereo not shown)
**A:** > 5.00

**Q:** // query pEC50 value for entry `COc1ccc(C2(C(=O)Nc3ncc(CCc4ccccc4OC)s3)CC2)cc1`
**A:** > 5.00

**Q:** // query pEC50 value for entry `COc1ccc(C2(C(=O)Nc3nc(-c4ccc(S(C)(=O)=O)cc4)cs3)CC2)cc1`
**A:** > 5.00

**Q:** // query pEC50 value for entry O=C(Nc1ncc(C(c2ccccc2F)N2CC[C@@H](O)C2)s1)C1(c2ccc3c(c2)OCO3)CC1 (stereo partly shown)
**A:** > 5.00

**Q:** // query pEC50 value for entry NC(=O)C1CCCN(C(c2cnc(NC(=O)C3(c4ccc5c(c4)OCO5)CC3)s2)c2ccccc2Cl)C1 (stereo not shown)
**A:** > 5.00

**Q:** // query pEC50 value for entry CCOC(c1cnc(NC(=O)C2(c3ccc4c(c3)OCO4)CC2)s1)c1ccccc1Cl (stereo not shown)
**A:** > 5.00

**Q:** // query pEC50 value for entry CC(C)(C)C(c1cnc(NC(=O)C2(c3ccc4c(c3)OCO4)CC2)s1)N1CCCCC1 (stereo not shown)
**A:** 4.60 to 5.00

**Q:** // query pEC50 value for entry COCC1CCCN1C(c1cnc(NC(=O)C2(c3ccc4c(c3)OCO4)CC2)s1)c1ccccc1OC (stereo not shown)
**A:** 4.60 to 5.00

**Q:** // query pEC50 value for entry O=C(Nc1ncc(C(c2ccccc2C(F)(F)F)N2CC[C@@H](O)C2)s1)C1(c2ccc3c(c2)OCO3)CC1 (stereo partly shown)
**A:** > 5.00

**Q:** // query pEC50 value for entry CN(C1CCCCC1)C(c1cnc(NC(=O)C2(c3ccc4c(c3)OCO4)CC2)s1)c1ccccc1Cl (stereo not shown)
**A:** > 5.00

**Q:** // query pEC50 value for entry O=C(Nc1ncc(C(c2ccccc2Cl)N2CC[C@H](O)C2)s1)C1(c2ccc3c(c2)OCO3)CC1 (stereo partly shown)
**A:** > 5.00

**Q:** // query pEC50 value for entry COC[C@@H]1CCCN1C(c1ccc(S(C)(=O)=O)cc1)c1cnc(NC(=O)C2(c3ccc4c(c3)OCO4)CC2)s1 (stereo partly shown)
**A:** 4.60 to 5.00

**Q:** // query pEC50 value for entry `O=C(Nc1ncc([C@H](O)c2ccccc2Cl)s1)C1(c2ccc3c(c2)OCO3)CC1`
**A:** > 5.00
